Target: human TLR7 (Homo sapiens (Human))
Sequence (Q9NYK1 27-1049): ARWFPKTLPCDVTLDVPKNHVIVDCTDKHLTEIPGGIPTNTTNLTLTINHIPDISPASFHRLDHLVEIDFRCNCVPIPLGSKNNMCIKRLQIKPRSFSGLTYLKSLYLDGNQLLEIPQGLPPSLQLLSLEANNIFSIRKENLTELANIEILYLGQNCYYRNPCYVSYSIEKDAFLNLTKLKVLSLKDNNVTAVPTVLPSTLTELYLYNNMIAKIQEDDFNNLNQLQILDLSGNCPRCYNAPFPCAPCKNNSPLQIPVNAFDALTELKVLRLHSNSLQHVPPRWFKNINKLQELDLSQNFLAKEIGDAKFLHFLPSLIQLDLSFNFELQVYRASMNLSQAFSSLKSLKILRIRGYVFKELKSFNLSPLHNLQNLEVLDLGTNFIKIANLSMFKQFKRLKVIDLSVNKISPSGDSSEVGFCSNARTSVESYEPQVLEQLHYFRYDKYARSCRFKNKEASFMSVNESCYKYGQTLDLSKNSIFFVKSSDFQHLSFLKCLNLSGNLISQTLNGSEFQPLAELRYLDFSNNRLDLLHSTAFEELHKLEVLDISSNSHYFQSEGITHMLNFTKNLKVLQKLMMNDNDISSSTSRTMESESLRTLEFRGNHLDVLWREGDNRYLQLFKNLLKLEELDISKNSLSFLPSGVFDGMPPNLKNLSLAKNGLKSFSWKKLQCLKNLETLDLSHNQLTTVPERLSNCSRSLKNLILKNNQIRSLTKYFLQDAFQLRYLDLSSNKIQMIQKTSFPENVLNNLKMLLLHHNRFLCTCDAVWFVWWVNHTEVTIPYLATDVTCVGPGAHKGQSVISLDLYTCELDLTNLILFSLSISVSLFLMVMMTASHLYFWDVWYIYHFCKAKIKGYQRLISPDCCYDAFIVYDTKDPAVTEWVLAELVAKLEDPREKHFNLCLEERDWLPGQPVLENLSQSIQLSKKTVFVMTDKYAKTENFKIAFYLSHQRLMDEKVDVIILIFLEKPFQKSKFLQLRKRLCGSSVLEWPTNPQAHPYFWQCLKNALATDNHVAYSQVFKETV
Assay: TLR7 inhibition reporter assay (HEK-Blue SEAP)
Format: cell-based
Conditions: HEK-Blue cells overexpressing human TLR7, SEAP reporter, gardiquimod 7.5 μM
pIC50: −log10 of the molar value.
Measurement Kind: pIC50

Before answering, review these 3 worked examples.
compound="Cc1cc(-c2[nH]c3ccc(C4CCN(CC(=O)N(C)C)CC4)nc3c2C(C)C)cn(C)c1=O [Example 529]" quantitative_readout=8.54
compound="Cc1cc(-c2[nH]c3ccc(C4CCN(CCS(C)(=O)=O)CC4)nc3c2C(C)C)cn2ncnc12 [Example 552]" quantitative_readout=9.08
compound="COc1cc(-c2[nH]c3ccc(C4CC(N(C)CC(=O)N(C)C)C4)nc3c2C(C)C)cn2ncnc12 (stereo not drawn) [Example 627]" quantitative_readout=8.10

1 = Cc1c(-c2[nH]c3ccc(C4CC(NC5CCOCC5)C4)nc3c2C(C)C)cn2ncnc2c1C (stereo not drawn) [Example 635]
2 = COc1cc(-c2[nH]c3ccc(C4CCC(N(CCS(C)(=O)=O)CCS(C)(=O)=O)C4)nc3c2C(C)C)cn2ncnc12 (stereo not drawn) [Example 726]
**Q:** Kindly identify which of 1 and 2 has the larger recorded pIC50 value. Give the label under which the chosen entry appears.
**A:** 1

I = Cc1c(-c2[nH]c3ccc(N4C[C@H](C)N(C(=O)CCN(C)C)C[C@@H]4C)nc3c2C(C)C)cn2ncnc2c1C [Example 789]
II = COc1cc(-c2[nH]c3cc(C)c(C(=O)N(C)CCN(C)C)nc3c2C(C)C)cn2ncnc12 [Example 732]
**Q:** Kindly identify which of I and II has the larger recorded pIC50 value. Give the label under which the chosen entry appears.
**A:** I

P = COCCN(C1CCC(c2ccc3[nH]c(-c4cn5ncnc5c(C)c4C)c(C(C)C)c3n2)CC1)C1(CO)COC1 (stereo not drawn) [Example 500]
Q = Cc1c(-c2[nH]c3ccc(C4CCC(NC5CCOCC5)CC4)nc3c2C(C)C)cn2ncnc2c1C (stereo not drawn) [Example 453]
R = COCCN(C1CCC(c2ccc3[nH]c(-c4cn5ncnc5c(C)c4C)c(C(C)C)c3n2)CC1)C1(CO)COC1 (stereo not drawn) [Example 499]
S = Cc1c(-c2[nH]c3ccc(N4C[C@H](C)N[C@@H](C)C4)nc3c2C(C)C)cn2ncnc2c1C [Example 757]
**Q:** List by increasing pIC50. Note for the reader: the ranking is given by listing the labels in the order requested.
**A:** R, P, Q, S
(R: 6.22, P: 7.72, Q: 8.40, S: 9.15)

a = Cc1c(-c2[nH]c3ccc(C4CCC(NCc5cnco5)CC4)nc3c2C(C)C)cn2ncnc2c1C (stereo not drawn) [Example 413]
b = Cc1cc(-c2[nH]c3ccc(-c4cnn(CCN5CCOCC5)c4)nc3c2C(C)C)cn2ncnc12 [Example 736]
c = Cc1c(-c2[nH]c3ccc(C4CC5(CNC5)C4)nc3c2C(C)C)cn2ncnc2c1C [Example 745]
d = CNC(=O)CNC1CCC(c2ccc3[nH]c(-c4cc(OC)c5ncnn5c4)c(C(C)C)c3n2)C1 (stereo not drawn) [Example 725]
e = Cc1c(-c2[nH]c3ccc(C4CCC(N(C)CC(=O)N(C)C)CC4)nc3c2C(C)C)cn2ncnc2c1C (stereo not drawn) [Example 410]
**Q:** Ranking field: pIC50; order: falling. Note for the reader: the ranking is given by listing the labels in the order requested.
**A:** d, c, e, a, b
(d: 9.21, c: 8.66, e: 8.30, a: 7.77, b: 6.20)

a = CNC(=O)CN1CCC(c2ccc3[nH]c(-c4cn(C)c(=O)c(C)c4C)c(C(C)C)c3n2)CC1 [Example 544]
b = Cc1cc(-c2[nH]c3ccc(C4CCN(C(=O)CN(C)C)CC4)nc3c2C(C)C)cn(C)c1=O [Example 531]
c = CCN1CC2(C1)CN(c1ccc3[nH]c(-c4cn5ncnc5c(C)c4C)c(C(C)C)c3n1)C2 [Example 744]
d = COc1cc(-c2[nH]c3ccc(OCC4CCN(C(C)C)CC4)nc3c2C(C)C)cn2ncnc12 [Example 598]
**Q:** Ranking field: pIC50; order: falling. Note for the reader: the ranking is given by listing the labels in the order requested.
**A:** d, c, a, b
(d: 9.09, c: 8.70, a: 7.96, b: 7.72)

P = COc1cc(-c2[nH]c3ccc(C4CN(C(C)C)C4)nc3c2C(C)C)cn2ncnc12 [Example 655]
Q = Cc1c(-c2[nH]c3cc(F)c(C4CCC(N)CC4)nc3c2C(C)C)cn2ncnc2c1C (stereo not drawn) [Example 506]
**Q:** Lab note: check whether P or Q has the lower measured pIC50. Give the label under which the chosen entry appears.
**A:** P
(P: 8.85, Q: 9.39)

1 = Cc1cc2[nH]c(-c3cn4ncnc4c(C)c3C)c(C(C)C)c2nc1C1CCC(NC2COC2)CC1 (stereo not drawn) [Example 503]
2 = Cc1c(-c2[nH]c3ccc(C4CCC(N(CCO)CC(=O)N(C)C)CC4)nc3c2C(C)C)cn2ncnc2c1C (stereo not drawn) [Example 468]
**Q:** Lab note: check whether 1 or 2 has the lower measured pIC50. Give the label under which the chosen entry appears.
**A:** 2

A = Cc1c(-c2[nH]c3cc(F)c(C4CCC(NC5CCOCC5)CC4)nc3c2C(C)C)cn2ncnc2c1C (stereo not drawn) [Example 504]
B = Cc1c(-c2[nH]c3ccc(C4CCC(N(CC#N)CC5(S(C)(=O)=O)CC5)CC4)nc3c2C(C)C)cn2ncnc2c1C (stereo not drawn) [Example 478]
**Q:** Lab note: check whether A or B has the lower measured pIC50. Give the label under which the chosen entry appears.
**A:** B
(B: 7.89, A: 9.26)
